The values you see were collected from the supplement of paper PMC9732359.

Experiment: protein stability index of a GFP-peptide fusion (yeast GPS) (PSI 1-4); higher = more stable; sorted into four equal gates, so the index is relative within each strain
Settings: ubr1∆
Quick reference: protein stability index of the listed items.
Could you keep your reply to the number by itself?

# example entries with known answers
Ask: Item under review: TASKIIVIDVDYNKKQD [MED1] . Reported protein stability index?
Reply: 2.65

Ask: Any idea what its protein stability index is? The sequence is PMVSVMKMDKSPTESYS [RPT2]
Reply: 1.71

Ask: For the sequence EAHPTKVKNFGVWVRYD [RPL20A] , what protein stability index is on record?
Reply: 2.9

Ask: Item KTEYVLNDLNHLLVQLQ [REC8] has what recorded protein stability index?
Reply: 3.02

Ask: // lookup protein stability index for IRYNSVEIQEVPRTADR [RPC82]
Reply: 2.79

Further cases:
Ask: So what does the record say about protein stability index for LDFIGRRGTALGIKKEK [RPB2] ?
Reply: 2.07

Ask: Reported protein stability index, sequence LELQVAQAFVELENSSP [RPS7A] : ____
Reply: 1.85

Ask: GET /values?readout=protein stability index&item= KNDTHYLLPDDFHFSTD [BRN1]
Reply: 2.95

Ask: So what does the record say about protein stability index for LCLEKLMCLSSKYCEKS [YCS4] ?
Reply: 1.92
